Values were extracted from PubChem BioAssay (NCI).

System: SF-268 CNS
Experimental details: NCI tumour cell line growth inhibition, 48 h
Please go through the items and note down their TGI.

Can you look up the measured TGI of CCC/C=C1\CCC(CN(C)C)C1=O (stereo unspecified) for me?
19.8 µM

What value of TGI has been recorded for this entry: COc1cccc(/C=N/NC(=S)NC2CC3CCC2C3)c1O (stereo unspecified)
21.5 µM

Can you look up the measured TGI of "O=c1c2c3c(sc2nc2n1N=C(c1ccc(Cl)cc1)CS2)CCCC3" for me?
> 100 µM

Please look up its TGI: COc1ccc(/C=c2\sc3n(c2=O)C2C(NN=3)N(C)C(=O)N2C)cc1 (stereo unspecified)
> 100 µM

Can you share its TGI? I mean this compound: "O=c1cc(NNc2cccc(F)c2)[nH]c(=O)[nH]1"
> 100 µM

Data request, read-out TGI, for "O=C1C=C2SC3C[C@@]24CC1[N+]1=c2c4c(c(O)c4c2=C(C=N4)CC1)N3"
2.9 µM

# TGI lookup, item "CSc1c(C#N)c(N)nc2c(N=Nc3ccc(Br)cc3)c(N)nn12"
13.2 µM

Recorded TGI for "COC(=O)C(=CNC(N)=O)C(=O)OC" , please?
> 100 µM

Query (compound): "CCCCCCCCCCCCc1ccc(S(=O)(=O)O)cc1.[Zn+2]" ; field requested: TGI
> 100 µM

// returns reported TGI for input "C(/Cc1ccc2c(c1)OCO2)=N\NC1=NCCN1"
> 100 µM

Quick one: TGI for "Cc1cn(CCCCCCC2=NCCCN2)c(=O)[nH]c1=O" ?
> 100 µM

Param item = "C/C(=C\c1ccccc1)C(=O)NCc1ccc(C(=O)NCCc2ccccc2)cc1" ; retrieve measured TGI.
> 39.5 µM

Suppose we examine the compound "COc1ccc(/C=C/C(=O)c2cc(C(C)(C)C)c(O)c(C(C)(C)C)c2)cc1OC" ; what TGI value has been reported?
> 67.7 µM

I would be grateful if you could share the reported TGI for CC(C)CCCC(C)[C@H]1CC[C@H]2[C@@H]3CC[C@H]4C[C@@H](CCC=C(c5cc(Cl)c(O)c(C(=O)OC(C)C)c5)c5cc(Cl)c(O)c(C(=O)OC(C)C)c5)CC[C@]4(C)[C@H]3CC[C@]12C (stereo partly specified) .
> 50 µM

For the compound CC(=O)N1N=C(c2ccc(Nc3ccnc4cc(Cl)ccc34)cc2)CC1c1ccc(Cl)cc1 (stereo unspecified) , what TGI is on record?
> 100 µM

Given the entry CC1(C)C(=O)c2ccccc2OC1N1CCN(C2Oc3ccccc3C(=O)C2(C)C)CC1 (stereo unspecified) , report its measured TGI.
> 100 µM

Given "O=c1sc2c(s1)-c1sc(=O)sc1SS2" , state its recorded TGI.
> 100 µM

What does the data say about its TGI? Entry: "O=C1c2ccccc2C(=O)c2c(O)c(NCCCNCCO)cc(O)c21"
23.1 µM

Give its TGI value. Item: "FC(F)(F)c1ccc(-c2cnc(-n3cc(COCCN4CCCCC4)nn3)nc2NC2CCCCCC2)cc1"
7.87 µM

For the compound "Nc1ccccc1.[C-]#[O+].[C-]#[O+].[C-]#[O+].[C-]#[O+].[C-]#[O+].[Cr]" , what TGI is on record?
> 10 µM

Which TGI value is on record for CCn1c(SC(C)C(=O)c2c(C)n(C)n(-c3ccccc3)c2=O)nc2ccccc2c1=O (stereo unspecified) ?
> 100 µM
